system: A-375; experiment: Antiproliferative activity against human A375 cells assessed as cell growth at 25 uM after 96 hrs by trypan blue assay; assay type: functional; conditions: A-375, 96 h, read-out: Activity
# if measured growth at 25 µM < 20%: YES  # else: NO

## Input growth at 25 µM strictly < 20% for this compound? CCC(c1cc(O)nc(SC2CCCC2)n1)c1c(F)cccc1F (stereo unspecified)
## Output NO

## Input Given CCC(C)Sc1nc(C(CC)c2c(F)cccc2F)c(C)c(=O)[nH]1 (mixture of isomers) , is recorded growth at 25 µM strictly lower than 20%?
## Output YES

## Input # TODO verify growth at 25 µM < 20% strictly for this compound: CCC(c1cc(=O)[nH]c(SC)n1)c1c(F)cccc1F (stereo unspecified)
## Output YES

## Input growth at 25 µM strictly < 20% for this compound? CCC(c1nc(S)[nH]c(=O)c1C)c1c(F)cccc1F (stereo unspecified)
## Output NO

## Input Lab note: confirm whether the reported growth at 25 µM for this compound is below 20%, equality not counting. compound: CCC(c1nc(SC(C)C)[nH]c(=O)c1C)c1c(F)cccc1F (stereo unspecified)
## Output YES

## Input Determine if CCC(c1nc(SC)[nH]c(=O)c1C)c1c(F)cccc1F (stereo unspecified) shows growth at 25 µM strictly lower than 20%.
## Output NO
